- method-notes: Human HepG2 cell viability assay in 384 well format
- Format: toxicity, cell-based
- Design: dose 125 nL, time 70.5 hour; concentration not given beside the values
- condition-context: HepG2 cells, read-out: Inhibition
test-readout: cytotoxicity at 70.5 h (%)
# number only, unit % dropped from output

Example entries begin here.
CC(C)(CO)NC(=O)C1CCC(=O)N(Cc2ccc(Cl)cc2)C1 (stereo unspecified) : -8.51
Cc1noc(C)c1CN(C)C(=O)c1ccc(NC2CC2)nc1 : 0.339
Cc1cc2nc(C(C)C)cc(NCCc3ccncc3)n2n1 : -13.2
Cc1cc(CNC(=O)CN2CCN(C(=O)OC(C)(C)C)CC2)ccc1F : 13.3
COc1coc(CN2CCCC(CCc3c(F)cccc3F)C2)cc1=O (stereo unspecified) : -2.32

Q: Suppose we examine the compound O=C(c1cccnc1)N1Cc2[nH]nc(COCCO)c2C1 ; what cytotoxicity at 70.5 h value has been reported?
Result: -4.06

---

- method-notes: Human HepG2 cell viability assay in 384 well format
- Format: toxicity, cell-based
- Set-up: dose 125 nL, time 70.5 hour; concentration not given beside the values
- condition-context: HepG2 cells, read-out: Inhibition
Overview of reported cytotoxicity at 70.5 h across a group of molecules:
# number only, unit % dropped from output

Example entries begin here.
CCCN(Cc1cccnc1)C(=O)C1CCCN(C)C1 (configuration not stated) : 2.68
COCCn1ccc2cc(NC(=O)N(C)C(C)CSC)ccc21 (configuration not stated) : 1.74
Cn1ncc2cnn(CC(O)COCc3ccccc3Cl)c2c1=O (configuration not stated) : -5.81
CCn1cc(CN2CCCC2c2nc(C(C)C)no2)cc1C#N (configuration not stated) : 21
NC(=O)C1(CCCc2ccccn2)CCCN(c2ncccn2)C1 (configuration not stated) : -2.53
CCOC(=O)C1CN(C(=O)COC)Cc2ncn(CC)c21 (configuration not stated) : -5.03

Q: Suppose we examine the molecule Cc1nc(C2CCCN(C(=O)CCCn3ccnc3C)C2)no1 (configuration not stated) ; what cytotoxicity at 70.5 h value has been reported?
Result: -11.8

Q: Suppose we examine the molecule Cc1cc(-c2nn3c(C(C)C)nnc3s2)on1 ; what cytotoxicity at 70.5 h value has been reported?
Result: -10.1

Q: Suppose we examine the molecule Cc1cc(-c2nnn(CCNS(C)(=O)=O)n2)ccc1F ; what cytotoxicity at 70.5 h value has been reported?
Result: 1.75

---

Overview of reported cytotoxicity at 70.5 h across a group of compounds:
- method-notes: Human HepG2 cell viability assay in 384 well format
- Type: toxicity, cell-based
- Set-up: dose 125 nL, time 70.5 hour; concentration not given beside the values
- condition-context: HepG2 cells, read-out: Inhibition
# number only, unit % dropped from output

Example entries begin here.
CC(=O)N1CCN(Cc2ccc(C(F)(F)F)cc2F)CC(O)C1 (stereo unspecified) : -10.5
CCn1nc(C)c(NC(=O)CN2CC[C@H](CO)[C@@H](O)C2)c1C : -11.7
COCC(=O)N1C[C@H](N(C)Cc2cncnc2)[C@H]2OCCC[C@H]21 : -8.78
Cc1csc(N2CCCN(C(=O)CCN3CCCC3=O)CC2)n1 : -8.02

Q: Suppose we examine the compound Cc1ccc(CCN2CCC(N(C)Cc3noc(C4CC4)n3)C2)cc1 (stereo unspecified) ; what cytotoxicity at 70.5 h value has been reported?
Result: 3.87

Q: Suppose we examine the compound CS(=O)(=O)c1cn[nH]c1C1CCCCN1C(=O)Cc1cccnc1 (stereo unspecified) ; what cytotoxicity at 70.5 h value has been reported?
Result: 5.76
